Test system: UACC-62 melanoma
METHOD_SUMMARY: NCI tumour cell line growth inhibition, 48 h
Catalogue of molecules with associated GI50

Example entries begin here.
[[record]]
molecule = "COc1ccc2c(c1)c(-c1nonc1-c1cn(C)c3ccccc13)cn2C"
experimental_endpoint = "GI50"
measured_value = "493 nM"

[[record]]
molecule = "COc1ccc(C(=O)N2N=C(c3ccc(Br)cc3)CC2c2cn(-c3ccccc3)nc2-c2ccccc2)cc1 (stereo unspecified)"
experimental_endpoint = "GI50"
measured_value = "42800 nM"

[[record]]
molecule = "C=C1C(=O)O[C@H]2[C@H]1CC/C(COC(=O)NCc1ccc(Cn3c(=O)sn(CCCC)c3=O)cc1)=C\\CC[C@@]1(C)O[C@@H]21"
experimental_endpoint = "GI50"
measured_value = "1620 nM"


Would you kindly look at the next entry?
Entry `CN1CCN(CCOc2ccc(-c3cnc4c(-c5cccc(F)c5F)cnn4c3)cc2)CC1` ; GI50 = 1840 nM

###

System: UACC-257 melanoma
METHOD_SUMMARY: NCI tumour cell line growth inhibition, 48 h
EXPERIMENTAL_ENDPOINT: GI50

[[record]]
molecule = "O=C1C(C(Nc2ccccc2)c2ccccc2)=C([O-])c2ccccc21.O=C1C(C(Nc2ccccc2)c2ccccc2)=C([O-])c2ccccc21.[Ni+2] (stereo not given)"
target = "UACC-257 melanoma"
measured_value = "42.3 µM"

[[record]]
molecule = "C[C@H](Nc1ccc2c(c1)OCCn1cc(N3C(=O)OC[C@H]3C(F)F)nc1-2)C(N)=O"
target = "UACC-257 melanoma"
measured_value = "11.5 µM"

[[record]]
molecule = "Oc1cc2ccccc2cc1-c1n[nH]c(=S)n1CCc1ccccc1"
target = "UACC-257 melanoma"
measured_value = "30 µM"

[[record]]
molecule = "CN1CCN(CCOc2ccc(-c3cnc4c(-c5cccc(F)c5F)cnn4c3)cc2)CC1"
target = "UACC-257 melanoma"
measured_value = "1.77 µM"


Entry COc1ccc(C(=O)N2N=C(c3ccc(Br)cc3)CC2c2cn(-c3ccccc3)nc2-c2ccccc2)cc1 (stereo not given) ; GI50 = > 50 µM

###

Catalogue of compounds with associated TGI
System: K-562 leukemia
METHOD_SUMMARY: NCI tumour cell line growth inhibition, 48 h

Example entries begin here.
[[record]]
compound = "O=S(=O)(O)c1ccc(-c2c3nc(c(-c4ccc(S(=O)(=O)O)cc4)c4ccc([nH]4)c(-c4ccc(S(=O)(=O)O)cc4)c4nc(c(-c5ccc(S(=O)(=O)O)cc5)c5ccc2[nH]5)C=C4)C=C3)cc1"
experimental_endpoint = "TGI"
measured_value = "> 100 µM"

[[record]]
compound = "CCOC(=O)c1sc2c(sc(=O)n2-c2ccccc2)c1O"
experimental_endpoint = "TGI"
measured_value = "> 100 µM"

[[record]]
compound = "Cc1ccc(N=Nc2c(O)c(C(=O)O)cc3ccccc23)c(S(=O)(=O)O)c1"
experimental_endpoint = "TGI"
measured_value = "> 100 µM"

[[record]]
compound = "O=C1Nc2ccccc2/C1=C/C(=N/c1nnc(-c2ccc(Cl)cc2)s1)c1ccccc1"
experimental_endpoint = "TGI"
measured_value = "11.4 µM"

[[record]]
compound = "O=C(NC(N1CCN(c2cc3c(cc2F)c(=O)c(C(=O)O)cn3C2CC2)CC1)(C(F)(F)F)C(F)(F)F)c1ccccc1"
experimental_endpoint = "TGI"
measured_value = "> 100 µM"

[[record]]
compound = "COC(=O)C1CC2c3c(c4ccccc4n3C)CC(C1=O)N2C (stereo not drawn)"
experimental_endpoint = "TGI"
measured_value = "> 100 µM"

[[record]]
compound = "CCc1n[nH]c(=S)n1/N=C/c1ccc(-c2ccc([N+](=O)[O-])cc2)o1"
experimental_endpoint = "TGI"
measured_value = "> 100 µM"

[[record]]
compound = "COc1cccc(CNCCN2C(=O)c3ccc4c5c(ccc(c35)C2=O)C(=O)N(CCNCc2cccc(OC)c2)C4=O)c1"
experimental_endpoint = "TGI"
measured_value = "8.52 µM"

[[record]]
compound = "O=C1CNN=C(CSc2nc3ccc(I)cc3c(=O)n2Cc2ccccc2)N1"
experimental_endpoint = "TGI"
measured_value = "> 100 µM"

[[record]]
compound = "Cc1cccc(C)c1NC(=O)/C=C/c1ccccc1"
experimental_endpoint = "TGI"
measured_value = "> 100 µM"


Entry `CCOC(=O)C(=CNC(=S)c1ccncc1)C(=O)OCC` ; TGI = > 100 µM

Entry `COc1ccc(/C=C/c2cc(OC)cc(OC)c2)cc1` ; TGI = > 100 µM

Entry `O=S(=O)(Nc1cccc(Cl)c1)c1ccc(-c2cnc(C3CC3)o2)cc1` ; TGI = 66 µM

Entry `COCOCCCCCO[Si](C)(C)C(C)(C)C` ; TGI = 54.9 µM

Entry `COc1cc(/C=C\c2cc(/C=C\c3ccc(O)c(OC)c3)n(C(=O)COc3ccc(Cl)cc3Cl)n2)ccc1O` ; TGI = > 100 µM
